Origin of values: patent US11919902B2

test_system: GST tagged PIP4KtypeIIB (Homo sapiens)
What IC50 was measured for each of the following?

Please review the entries below; each comes with its answer.
CNC(=O)c1cnc2[nH]cc(-c3cncc(-c4ccc(N5CCCC5=O)cc4)c3)c2c1 [Example 71] | 10 to 100 nM
Cc1cc(N2CCCC2=O)ccc1-c1cncc(-c2cn(C)c3ncc([C@H](C)O)cc23)c1 (single isomer, unassigned) [197(S)] | 1000 to 2500 nM
CN(C)C(=O)c1cc2c(-c3cncc(-c4ccc(N5CCCC5=O)cc4)c3)cn(C)c2c(=O)n1C [Example 260] | 100 to 1000 nM

Given the compound Cn1cc(-c2cncnc2)c2cc(-c3cncc(-c4ccc(N5CCCC5=O)cc4)c3)cnc21 [Example 176] , write its reported IC50.
1000 to 2500 nM

---

test_system: GST tagged PIP4KtypeIIB (Homo sapiens, UniProt P78356)
Sequence (P78356 1-416): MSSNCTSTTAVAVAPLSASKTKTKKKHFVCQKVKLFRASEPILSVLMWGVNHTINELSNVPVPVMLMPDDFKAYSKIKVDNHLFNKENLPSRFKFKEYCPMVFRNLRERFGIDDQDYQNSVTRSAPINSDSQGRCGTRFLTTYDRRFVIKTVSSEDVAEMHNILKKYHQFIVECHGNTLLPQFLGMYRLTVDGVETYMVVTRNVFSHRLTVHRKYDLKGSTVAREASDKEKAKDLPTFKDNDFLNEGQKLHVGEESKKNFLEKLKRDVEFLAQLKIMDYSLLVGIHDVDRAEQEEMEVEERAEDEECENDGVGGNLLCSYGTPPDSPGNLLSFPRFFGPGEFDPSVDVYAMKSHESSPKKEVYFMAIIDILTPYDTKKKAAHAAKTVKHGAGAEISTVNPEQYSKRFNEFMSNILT
pIC50: −log10 of the molar value.
What pIC50 was measured for each of the following?

Please review the entries below; each comes with its answer.
CN(C)C(=O)c1ccc(-c2cc(-c3ccnc4[nH]c(=O)[nH]c34)cnc2N)nc1 [Example 113] | 6.00 to 7.00
CC(C)n1cnnc1-c1ccc(-c2cc(-c3ccnc4oc(C(=O)NCC5CC5)cc34)cnc2N)cc1 [Example 392] | 8.00 to 9.00
O=C(Nc1ccncc1)c1cc2c(-c3cncc(-c4ccc(N5CCCC5=O)cc4)c3)ccnc2[nH]1 [Example 314] | 7.00 to 8.00
Cc1c[nH]c2nccc(-c3cnc(N)c(-c4ccc(N5CCCC5=O)cc4)c3)c12 [Example 309] | 7.00 to 8.00
Cn1cc(-c2cnc(N)nc2)c2cc(-c3cncc(-c4ccc(N5CCCC5=O)cc4)c3)cnc21 [Example 355] | 6.00 to 7.00

Answer for every listed entry: what is its pIC50? The entries follow.
1. C[C@@H](O)c1cnc2c(c1)c(-c1cncc(-c3ccc(N4CCCC4=O)cc3)c1)cn2C [Example 293]
2. Cc1c(-c2ccc(N3CCCC3=O)cc2)cncc1-c1cn(C)c2ncc([C@H](C)O)cc12 (single isomer, unassigned) [196(S)]
3. CN(C)C(=O)c1ccc(-c2cc(-c3cnc4c(c3)c(-c3cncs3)cn4C)cnc2N)nc1 [Example 125]
4. Nc1ccc(-c2cnc3ncc(-c4cncc(-c5ccc(N6CCCC6=O)cc5)c4)cn23)cn1 [Example 337]
5. CC(C)n1cnnc1-c1ccc(-c2cc(-c3ccnc4c3cc3n4CCN(CC4CC4)C3=O)cnc2N)cc1 [Example 374]

1: 6.00 to 7.00; 2: 6.00 to 7.00; 3: 5.30 to 5.60; 4: 6.00 to 7.00; 5: 8.00 to 9.00

Answer for every listed entry: what is its pIC50? The entries follow.
1. CN(C)C(=O)c1ccc(-c2cc(-c3[nH]nc4ncncc34)cnc2N)nc1 [Example 214]
2. Cn1cc(-c2cnc(N)c(-c3ccc(N4CCCC4=O)cc3)c2)c2cc(N3CCCC3=O)cnc21 [Example 91]
3. Cc1c[nH]c2nccc(-c3cncc(-c4ccc(N5CCCC5=O)cc4)c3)c12 [Example 323]
4. Cc1cnc2[nH]cc(-c3cncc(-c4ccc(N5CCCC5=O)cc4)c3)c2c1 [Example 31]
5. CN(C)C(=O)c1ccc(-c2cc(-c3ccnc4[nH]c(C(=O)NCCN)cc34)cnc2N)nc1 [Example 133]
6. CN(C(=O)c1cc2c(-c3cncc(-c4ccc(N5CCCC5=O)cc4)c3)ccnc2[nH]1)c1ccccc1 [Example 311]
7. Cc1nn2c(=O)c(CCO)c(C)[nH]c2c1-c1cncc(-c2ccc(N3CCCC3=O)cc2)c1 [Example 284]

["6.00 to 7.00", "7.00 to 8.00", "6.00 to 7.00", "6.00 to 7.00", "6.00 to 7.00", "6.00 to 7.00", "6.00 to 7.00"]

Answer for every listed entry: what is its pIC50? The entries follow.
1. CN(C)C(=O)c1ccc(-c2cc(-c3ccnc4[nH]c(C(=O)NCc5ccccc5)cc34)cnc2N)nc1 [Example 134]
2. CCOc1cnc2[nH]ccc2c1-c1cncc(-c2ccc(N3CCCC3=O)cc2)c1 [Example 59]

1. 7.00 to 8.00
2. 6.00 to 7.00

Answer for every listed entry: what is its pIC50? The entries follow.
1. CNC(=O)c1[nH]c2nccc(-c3cncc(-c4ccc(N5CCCC5=O)cc4)c3)c2c1C [Example 313]
2. Cn1ccc2c(-c3cncc(-c4ccc(N5CCCC5=O)cc4)c3)cn(C)c2c1=O [Example 243]
3. CC[C@@H](C)n1cnnc1-c1ccc(-c2cncc(-c3ccnc4c3cc3n4CCN(C)C3=O)c2)cc1 [Example 361]
4. CN(C)C(=O)c1ccc(-c2cc(-c3cnc4c(c3)c(-c3cccnc3)cn4C)cnc2N)nc1 [Example 121]

1. 6.00 to 7.00
2. 6.00 to 7.00
3. 7.00 to 8.00
4. 6.00 to 7.00

Answer for every listed entry: what is its pIC50? The entries follow.
1. CN(C)C(=O)c1ccc(-c2cc(-c3cc(Nc4cccc(N)c4)ncn3)cnc2N)nc1 [Example 216]
2. O=C1CCCN1c1ccc(-c2cncc(-c3c[nH]c4ncc(Cl)cc34)c2)cc1 [Example 27]

1. 6.00 to 7.00
2. 6.00 to 7.00

Answer for every listed entry: what is its pIC50? The entries follow.
1. CN1CCn2c(cc3c(-c4cncc(-c5ccc(N6CCCC6=O)cc5)c4)ccnc32)C1=O [Example 46]
2. Cn1ccc(-c2cncc(-c3ccc(N4CCCC4=O)cc3)c2)cc1=O [Example 33]
3. CN(C)C(=O)c1ccc(-c2cc(-c3ccnc4[nH]c(C(=O)N5CC(O)C5)cc34)cnc2N)nc1 [Example 129]
4. Cn1cc(-c2cncc(-c3ccc(N4CCCC4=O)cc3)c2)c2cc(N3CCCC3=O)cnc21 [Example 77]
5. O=C1CCCN1c1ccc(-c2cncc(-c3cn(Cc4ccccc4)c(=O)c4[nH]ncc34)c2)cc1 [Example 67]

7.00 to 8.00
< 5.30
6.00 to 7.00
6.00 to 7.00
6.00 to 7.00

Provide pIC50, system GST tagged PIP4KtypeIIB (Homo sapiens, UniProt P78356), entry Cc1[nH]c2ncccc2c1-c1cncc(-c2ccc(C(=O)N(C)C)cc2)c1 [Example 11]
6.00 to 7.00
